From: patent US11306101B2

- target.entity: CK1α (Homo sapiens, UniProt P48729+Q96SW2)
- Construct: expressed in transfected cells
- Sequence (P48729 whole entry): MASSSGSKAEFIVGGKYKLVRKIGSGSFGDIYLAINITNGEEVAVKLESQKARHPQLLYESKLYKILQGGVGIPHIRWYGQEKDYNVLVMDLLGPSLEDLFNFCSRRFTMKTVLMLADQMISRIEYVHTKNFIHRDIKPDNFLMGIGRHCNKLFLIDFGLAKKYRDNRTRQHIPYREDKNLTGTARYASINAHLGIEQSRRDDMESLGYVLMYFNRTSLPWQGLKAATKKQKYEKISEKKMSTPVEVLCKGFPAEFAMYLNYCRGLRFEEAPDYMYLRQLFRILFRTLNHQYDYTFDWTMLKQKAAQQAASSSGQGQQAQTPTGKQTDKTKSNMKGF
- Sequence (Q96SW2 whole entry): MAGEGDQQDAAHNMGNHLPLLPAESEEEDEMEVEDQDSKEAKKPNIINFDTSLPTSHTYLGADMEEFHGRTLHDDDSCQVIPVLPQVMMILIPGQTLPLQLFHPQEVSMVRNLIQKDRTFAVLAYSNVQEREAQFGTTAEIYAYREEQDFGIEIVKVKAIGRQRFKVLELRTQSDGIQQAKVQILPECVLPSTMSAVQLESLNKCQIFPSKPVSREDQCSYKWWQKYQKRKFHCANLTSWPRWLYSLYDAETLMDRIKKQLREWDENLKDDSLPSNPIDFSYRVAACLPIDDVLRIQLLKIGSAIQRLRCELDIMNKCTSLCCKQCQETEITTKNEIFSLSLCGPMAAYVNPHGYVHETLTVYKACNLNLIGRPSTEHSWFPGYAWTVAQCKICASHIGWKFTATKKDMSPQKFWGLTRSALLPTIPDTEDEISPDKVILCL
- Sequence (Q16531 whole entry partner): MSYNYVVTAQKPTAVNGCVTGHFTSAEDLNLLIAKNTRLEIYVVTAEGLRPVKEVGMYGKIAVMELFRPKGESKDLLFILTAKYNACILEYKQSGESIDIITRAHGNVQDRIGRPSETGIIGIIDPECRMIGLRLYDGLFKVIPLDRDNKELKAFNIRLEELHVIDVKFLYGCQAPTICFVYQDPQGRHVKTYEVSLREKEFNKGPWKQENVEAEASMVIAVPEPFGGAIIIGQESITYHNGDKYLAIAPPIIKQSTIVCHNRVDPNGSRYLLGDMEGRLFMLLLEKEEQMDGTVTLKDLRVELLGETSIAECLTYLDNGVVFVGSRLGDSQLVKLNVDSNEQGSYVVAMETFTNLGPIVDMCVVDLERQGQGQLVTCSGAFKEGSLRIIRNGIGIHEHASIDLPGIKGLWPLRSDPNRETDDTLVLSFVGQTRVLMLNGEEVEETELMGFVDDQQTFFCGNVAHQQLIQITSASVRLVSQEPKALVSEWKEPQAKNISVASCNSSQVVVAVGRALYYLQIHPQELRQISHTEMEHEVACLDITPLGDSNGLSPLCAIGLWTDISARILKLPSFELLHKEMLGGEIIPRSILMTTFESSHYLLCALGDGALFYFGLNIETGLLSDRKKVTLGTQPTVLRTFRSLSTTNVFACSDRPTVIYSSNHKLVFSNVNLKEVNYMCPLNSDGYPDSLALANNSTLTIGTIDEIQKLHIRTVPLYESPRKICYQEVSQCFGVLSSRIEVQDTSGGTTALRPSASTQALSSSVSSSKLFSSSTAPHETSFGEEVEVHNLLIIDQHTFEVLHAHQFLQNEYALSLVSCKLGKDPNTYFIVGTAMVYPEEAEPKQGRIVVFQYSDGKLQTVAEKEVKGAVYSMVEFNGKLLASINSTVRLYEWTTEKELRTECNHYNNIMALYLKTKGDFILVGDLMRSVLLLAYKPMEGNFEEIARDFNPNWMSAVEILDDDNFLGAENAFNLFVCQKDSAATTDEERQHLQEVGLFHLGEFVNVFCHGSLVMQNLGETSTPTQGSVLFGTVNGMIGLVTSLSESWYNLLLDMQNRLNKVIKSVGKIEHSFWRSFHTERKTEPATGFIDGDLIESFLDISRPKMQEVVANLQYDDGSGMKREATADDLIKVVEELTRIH
- test.method.notes: CK1α ePL degradation assay in MDS-L cells
- Type: cell-based
- reported.conditions: concentration giving 50% CK1α degradation vs DMSO control; MDS-L cells expressing ePL-tagged CK1α
measured.endpoint: DC50

1) CC(C)[C@H](NC(=O)c1ccc2c(c1)CN(C1CCC(=O)NC1=O)C2=O)c1ncccc1Cl (some centres unmarked)
< 0.1 µM
2) O=C1CCC(N2Cc3cc(C(=O)NC(C4CCC5(CC4)CC(O)C5)C(F)(F)F)ccc3C2=O)C(=O)N1 (centres unmarked) [Example 181]
0.1 to 0.5 µM
3) CN(C)Cc1ccc([C@@H](NC(=O)c2ccc3c(c2F)CN(C2CCC(=O)NC2=O)C3=O)C(F)(F)F)cc1 (some centres unmarked)
< 0.1 µM
4) O=C1CCC(N2Cc3c(ccc(C(=O)N[C@H](c4ccc(F)cc4)C(F)F)c3F)C2=O)C(=O)N1 (some centres unmarked)
< 0.1 µM
5) O=C1CCC(N2Cc3cc(C(=O)N[C@H](c4ncc(F)cc4Cl)C(F)(F)F)ccc3C2=O)C(=O)N1 (some centres unmarked)
< 0.1 µM
6) O=C1CCC(N2Cc3cc(C(=O)N[C@H](c4ccc(F)cc4C(F)(F)F)C(F)(F)F)ccc3C2=O)C(=O)N1 (some centres unmarked)
< 0.1 µM
7) O=C1CC[C@H](N2Cc3cc(C(=O)N[C@H](c4ccc(F)cc4)C(F)(F)F)ccc3C2=O)C(=O)N1
< 0.1 µM
8) O=C1CCC(N2Cc3cc(C(=O)N[C@H]([C@H]4CC[C@@H](O)CC4)C(F)(F)F)ccc3C2=O)C(=O)N1 (some centres unmarked)
0.1 to 0.5 µM
9) CC(C)[C@H](NC(=O)c1ccc2c(c1)CN(C1CCC(=O)NC1=O)C2=O)c1ccc(Cl)cc1 (some centres unmarked)
< 0.1 µM
10) CC(C)NC(=O)c1ccc2c(c1)CN(C1CCC(=O)NC1=O)C2=O (centres unmarked)
0.1 to 0.5 µM
11) O=C1CCC(N2Cc3cc(C(=O)N[C@H](c4ccc(Cl)cn4)C(F)(F)F)ccc3C2=O)C(=O)N1 (some centres unmarked)
< 0.1 µM
12) Cn1nccc1[C@@H](NC(=O)c1ccc2c(c1)CN(C1CCC(=O)NC1=O)C2=O)C(F)(F)F (some centres unmarked)
0.5 to 1 µM
13) O=C1CCC(N2Cc3c(ccc(C(=O)N[C@H](c4ccccc4)C(F)(F)F)c3F)C2=O)C(=O)N1 (some centres unmarked)
< 0.1 µM
14) COc1ccc([C@H](C)NC(=O)c2ccc3c(c2)CN(C2CCC(=O)NC2=O)C3=O)cc1 (some centres unmarked)
< 0.1 µM
15) C[C@H](NC(=O)c1ccc2c(c1)CN(C1CCC(=O)NC1=O)C2=O)C1CCC1 (some centres unmarked)
< 0.1 µM
16) O=C1CCC(N2Cc3cc(C(=O)N[C@H](c4cccc(OC5CC5)c4)C(F)(F)F)ccc3C2=O)C(=O)N1 (some centres unmarked)
< 0.1 µM
17) CC(C)Oc1cccc([C@@H](NC(=O)c2ccc3c(c2)CN(C2CCC(=O)NC2=O)C3=O)C(F)(F)F)c1 (some centres unmarked)
< 0.1 µM
